Origin of values: patent US10723741B1

System: Enterococcus faecium ATCC 700221 (VRE)
Test: Broth microdilution MIC, E. faecium ATCC 700221 (VRE)
Format: cell-based
Settings: Enterococcus faecium; broth microdilution, 37° C., 20 hours; read-out: MIC E. faecium ATCC 700221 (VRE)
Each entry below carries its recorded log10 of MIC.
Hello, just confirming the data are log10 of MIC with units of µg/mL.

Examples from the recorded data:
COCC(OCCn1ncc2nc(NCc3ccc(Cl)c(Cl)c3)[nH]c(=O)c21)c1cccnc1.Cl (stereo not drawn) [Compound 185] = 1.20
O=c1[nH]c(NCc2ccc(Cl)c(Cl)c2)nc2cnn(CCCOC3CC(O)C3)c12 (stereo not drawn) [Compound 179] = 0.30
Cc1nn(C)c2c(=O)[nH]c(NCc3ccc(Cl)c(Cl)c3)nc12 [Compound 44] = 0.60
Cn1ncc2nc(NCc3ccc(Cl)c(Cl)c3)[nH]c(=O)c21 [Compound 2] = 0.00
CC(C)n1ncc2nc(NCc3ccc(Cl)c(Cl)c3)[nH]c(=O)c21 [Compound 130] = 0.30
COCCN1CCC(n2ncc3nc(NCc4ccc(Cl)c(Cl)c4)[nH]c(=O)c32)CC1.Cl [Compound 157] = 0.30
C=CCn1ncc2nc(NCc3ccc(Cl)c(Cl)c3)[nH]c(=O)c21 [Compound 56] = -0.30
O=C(O)CCCCn1nc(F)c2nc(NCc3ccc(Cl)c(Cl)c3)[nH]c(=O)c21 [Compound 209] = 0.00

May I ask what log10 of MIC has been recorded for COCCn1nc(F)c2nc(NCc3ccc(Cl)c(Cl)c3)[nH]c(=O)c21 [Compound 305] ? 0.00

May I ask what log10 of MIC has been recorded for Cl.O=c1[nH]c(NCc2ccc(Cl)c(Cl)c2)nc2cnn(CC3CNCCO3)c12 (stereo not drawn) [Compound 149] ? 0.90

May I ask what log10 of MIC has been recorded for Cl.O=c1[nH]c(NCc2ccc(Cl)c(Cl)c2)nc2cnn(CC3(CO)CCNCC3)c12 [Compound 195] ? 1.81

May I ask what log10 of MIC has been recorded for CN(C)CC(O)C(O)C(=O)N1CCC(n2ncc3nc(NCc4ccc(Cl)c(Cl)c4)[nH]c(=O)c32)CC1.Cl (stereo not drawn) [Compound 277] ? 1.51

May I ask what log10 of MIC has been recorded for O=C(CO)Cn1ncc2nc(NCc3ccc(Cl)c(Cl)c3)[nH]c(=O)c21 [Compound 290] ? 0.90

May I ask what log10 of MIC has been recorded for O=c1[nH]c(NCc2ccc(Cl)c(Cl)c2)nc2c(Cl)nn(CCOCCO)c12 [Compound 303] ? 0.00

---

Tested on: Enterococcus faecium ATCC 700221 (VRE)
Experiment: Broth microdilution MIC, E. faecium ATCC 700221 (VRE)
Format: cell-based
Details: Enterococcus faecium; broth microdilution, 37° C., 20 hours; read-out: MIC E. faecium ATCC 700221 (VRE)
measured_attribute: MIC (µg/mL)
# unit: µg/mL | format: bare number

O=c1[nH]c(NCc2ccc(Cl)c(Cl)c2)nc2cnn(Cc3ccc(O)c(O)c3)c12 = 8
COCCn1ncc2nc(NCc3ccc(Cl)c(Cl)c3)[nH]c(=O)c21 = 2
CNC(=O)C(C)(C)CCCn1ncc2nc(NCc3ccc(Cl)c(Cl)c3)[nH]c(=O)c21 = 16
Cl.Cl.O=c1[nH]c(NCc2ccc(Cl)c(Cl)c2)nc2cnn(CCOCCN3CCNCC3)c12 = 64

May I ask what MIC has been recorded for Cl.O=C(c1ccncc1)N1CCC(n2nc(F)c3nc(NCc4ccc(F)c(F)c4)[nH]c(=O)c32)CC1 ? 4

May I ask what MIC has been recorded for Cl.O=c1[nH]c(NCc2ccc(Cl)c(Cl)c2)nc2cnn(CCN3CCOCC3)c12 ? 1

---

Test system: Enterococcus faecium ATCC 700221 (VRE)
Assay: Broth microdilution MIC, E. faecium ATCC 700221 (VRE)
Type: cell-based
Details: Enterococcus faecium; broth microdilution, 37° C., 20 hours; read-out: MIC E. faecium ATCC 700221 (VRE)
measured_attribute: MIC (µg/mL)
# unit: µg/mL | format: bare number

CN(CCn1ncc2nc(NCc3ccc(Cl)c(Cl)c3)[nH]c(=O)c21)C(=O)c1cc(Cl)nnc1O = 32
O=c1[nH]c(NCc2ccc(Cl)c(Cl)c2)nc2c(Cl)nn(Cc3cocn3)c12 = 1
O=C(O)CCn1cc2nc(NCc3ccc(Cl)c(Cl)c3)[nH]c(=O)c2n1 = 64
Cl.O=C(c1cccnc1)N1CCC(n2ncc3nc(NCc4ccc(Cl)c(Cl)c4)[nH]c(=O)c32)C1 (centres unmarked) = 4
O=c1[nH]c(NCc2ccc(Cl)c(Cl)c2)nc2cnn(CCCCO)c12 = 1

May I ask what MIC has been recorded for CC(CO)n1ncc2nc(NCc3ccc(Cl)c(Cl)c3)[nH]c(=O)c21 (centres unmarked) ? 8

---

Each entry below carries its recorded MIC.
System: Enterococcus faecium ATCC 700221 (VRE)
Assay: Broth microdilution MIC, E. faecium ATCC 700221 (VRE)
Assay type: cell-based
Conditions: Enterococcus faecium; broth microdilution, 37° C., 20 hours; read-out: MIC E. faecium ATCC 700221 (VRE)

Cl.NCCOCCn1ncc2nc(NCc3ccc(Cl)c(Cl)c3)[nH]c(=O)c21 = 32 µg/mL

May I ask what MIC has been recorded for Cn1ncc2nc(NCc3ccc(Cl)c(F)c3)[nH]c(=O)c21 ? 8 µg/mL

---

Each entry below carries its recorded MIC.
Test system: Enterococcus faecalis ATCC 29212
Test: Broth microdilution MIC, E. faecalis ATCC 29212
Type: cell-based
Settings: ATCC29212, broth microdilution, 37° C., 20 hours, read-out: MIC E. faecalis ATCC 29212
# unit: µg/mL | format: bare number

Examples from the recorded data:
Cn1nc(CCO)c2nc(NCc3ccc(Cl)c(Cl)c3)[nH]c(=O)c21 = 16
CC(C)(C)OC(=O)N1CCOC(Cn2ncc3nc(NCc4ccc(Cl)c(Cl)c4)[nH]c(=O)c32)C1 (centres unmarked) = 16
O=c1[nH]c(NCc2ccc(F)c(F)c2)nc2c(F)nn(Cc3cocn3)c12 = 8
Cl.O=c1[nH]c(NCc2ccc(Cl)c(Cl)c2)nc2cnn(CCc3ccccn3)c12 = 8
O=c1[nH]c(NCc2ccc(F)c(F)c2)nc2cnn(CC3CCO3)c12 (centres unmarked) = 32
Cl.O=C(c1ccncc1)N1CCC(n2ncc3nc(NCc4ccc(Cl)c(Cl)c4)[nH]c(=O)c32)C1 (centres unmarked) = 4
Cl.O=C(c1ccncc1)N1CCC(n2ncc3nc(NCc4ccc(Cl)c(Cl)c4)[nH]c(=O)c32)CC1 = 4
CS(=O)(=O)CCOCCn1ncc2nc(NCc3ccc(Cl)c(Cl)c3)[nH]c(=O)c21 = 8

May I ask what MIC has been recorded for O=c1[nH]c(NCc2ccc(Cl)c(Cl)c2)nc2cnn(CCN3CCS(=O)(=O)CC3)c12 ? 8

May I ask what MIC has been recorded for O=c1[nH]c(NCc2ccc(Cl)c(Cl)c2)nc2cnn(CCO)c12 ? 4

May I ask what MIC has been recorded for Cl.O=c1[nH]c(NCc2ccc(Cl)c(Cl)c2)nc2cnn(CC3CCNC3)c12 (centres unmarked) ? 64

May I ask what MIC has been recorded for O=c1[nH]c(NCc2ccc(Cl)c(Cl)c2)nc2cnn(C3CCOCC3)c12 ? 4

May I ask what MIC has been recorded for O=C1CCCN1CCn1ncc2nc(NCc3ccc(Cl)c(Cl)c3)[nH]c(=O)c21 ? 16

---

Test system: Enterococcus faecalis ATCC 29212
Test: Broth microdilution MIC, E. faecalis ATCC 29212
Format: cell-based
Conditions: ATCC29212, broth microdilution, 37° C., 20 hours, read-out: MIC E. faecalis ATCC 29212
measured_attribute: MIC

Examples from the recorded data:
Cl.O=c1[nH]c(NCc2ccc(Cl)c(Cl)c2)nc2cnn(CCc3nnc(CO)o3)c12 = 32 µg/mL
Cn1ncc2nc(NCCc3ccc(Cl)c(Cl)c3)[nH]c(=O)c21 = > 64 µg/mL
O=c1[nH]c(NCc2ccc(Cl)c(Cl)c2)nc2cnn(CCS(=O)(=O)CCO)c12 = 32 µg/mL
N.N.O=c1[nH]c(NCc2ccc(Cl)c(Cl)c2)nc2cnn(CCOCCOCOP(=O)(O)O)c12 = > 64 µg/mL
O=c1[nH]c(NCc2ccc(Cl)c(Cl)c2)nc2cnn(CCOCCCO)c12 = 8 µg/mL
O=c1[nH]c(NCc2ccc(Cl)c(Cl)c2)nc2cnn(CCOCCOP(=O)(O)O)c12 = > 64 µg/mL
CC(C)(C)OC(=O)N1CCCC(CN2CCC(n3ncc4nc(NCc5ccc(Cl)c(Cl)c5)[nH]c(=O)c43)CC2)C1.Cl (centres unmarked) = > 64 µg/mL

May I ask what MIC has been recorded for O=c1[nH]c(NCc2ccc(Cl)c(Cl)c2)nc2cnn(Cc3ncco3)c12 ? 16 µg/mL

---

Test system: Streptococcus pneumoniae ATCC 49619
Assay: Broth microdilution MIC, S. pneumoniae ATCC 49619
Type: cell-based
Conditions: ATCC49619, broth microdilution, 37° C., 20 hours, read-out: MIC S. pneumoniae ATCC 49619
Text: Bacteria tested are Staphylococcus aureus NRS384 (a methicillin-resistant Staphylococcus aureus, MRSA), Staphylococcus aureus ATCC 29213 (a methicillin-sensitive Staphylococcus aureus, MSSA), Streptococcus pneumoniae ATCC 49619, Enterococcus faecalis ATCC 29212, Enterococcus faecium ATCC 700221 (a vancomycin-resistant enterococcus, VRE), Bacillus subtilis ATCC 6633, and Escherichia coli ATCC 25922. […]
The label is satisfied for MIC below 8 µg/mL and not satisfied for MIC equal to or exceeding 8 µg/mL.

CC(=O)OCCCCn1ncc2nc(NCc3ccc(Cl)c(Cl)c3)[nH]c(=O)c21 [Compound 90] = satisfied
COCC(COC)n1ncc2nc(NCc3ccc(Cl)c(Cl)c3)[nH]c(=O)c21 [Compound 106] = not satisfied
O=c1[nH]c(NCc2ccc(Cl)c(Cl)c2)nc2cnn(CCCc3nnn[nH]3)c12 [Compound 221] = not satisfied
CS(=O)(=O)CCOCCn1ncc2nc(NCc3ccc(Cl)c(Cl)c3)[nH]c(=O)c21 [Compound 220] = satisfied
Cl.O=c1[nH]c(NCc2ccc(Cl)c(Cl)c2)nc2cnn(CCN3C[C@@H]4C[C@H]3CO4)c12 [Compound 68] = satisfied

Here's an entry: CC(C)(C)OC(=O)N1CCC(n2ncc3nc(NCc4ccc(Cl)c(Cl)c4)[nH]c(=O)c32)C1 (stereo not shown) [Compound 98] . Is its MIC below 8 µg/mL? not satisfied

Here's an entry: Cn1ncc2nc(Nc3ccc(Cl)c(Cl)c3)[nH]c(=O)c21 [Compound 9] . Is its MIC below 8 µg/mL? not satisfied

Here's an entry: CN(C)C(=O)c1nn(C)c2c(=O)[nH]c(NCc3ccc(Cl)c(Cl)c3)nc12 [Compound 43] . Is its MIC below 8 µg/mL? not satisfied

Here's an entry: O=c1[nH]c(NCc2ccc(Cl)c(Cl)c2)nc2cnn(C[C@H]3NC[C@H](O)[C@@H](O)[C@@H]3O)c12 [Compound 96] . Is its MIC below 8 µg/mL? not satisfied

Here's an entry: Cl.O=c1[nH]c(NCc2ccc(Cl)c(Cl)c2)nc2cnn(Cc3cnccn3)c12 [Compound 112] . Is its MIC below 8 µg/mL? satisfied
